Where do the numbers come from? From patent US20230348453A1.

# methodNotes: Human hepatocyte stability
# Assay type: in vitro ADME
# experimentalSetup: human, hepatocytes; read-out: Human hepatocyte stability, Intrinsic clearance
Decision: microsomal CLint compared against 60 µL/min/mg; not below it gives label 1, below it gives label 0.

compound	assignedLabel
Cc1nc(Nc2ncc(C(=O)Nc3c(CF)csc3Cl)s2)cc(N2CCN(CCO)CC2)n1	label 0
Cc1nc(Nc2ncc(C(=O)Nc3c(C(F)F)csc3Cl)s2)cc(N2CCN(CCO)CC2)n1	label 0
Cc1nc(Nc2ncc(C(=O)Nc3c(CF)csc3Cl)s2)cc(N2CCN(C)C(C)C2)n1 (racemic)	label 1
Cc1nc(Nc2ncc(C(=O)Nc3c(CF)csc3Cl)s2)cc(N2CCN(C)CC2)n1	label 0
Cc1nc(Nc2ncc(C(=O)Nc3c(CF)csc3Cl)s2)cc(N2CCCN(C)CC2)n1	label 0
Cc1nc(Nc2ncc(C(=O)Nc3c(C)csc3Cl)s2)cc(N2CCN(CCO)CC2)n1	label 0

====

List of half-life values.
# methodNotes: in vitro
# experimentalSetup: human, microsomes

compound	qualifierOperator	half-life, min
Cc1nc(Nc2ncc(C(=O)Nc3c(CF)csc3Cl)s2)cc(N2CCN(C)CC2)n1	=	11
Cc1nc(Nc2ncc(C(=O)Nc3c(CF)csc3Cl)s2)cc(N2CCN(C)C(C)C2)n1 (racemic)	=	12
Cc1nc(Nc2ncc(C(=O)Nc3c(CF)csc3Cl)s2)cc(N2CCN(CCO)CC2)n1	=	16
Cc1nc(Nc2ncc(C(=O)Nc3c(C)nn(C)c3C)s2)cc(N2CCN(CCO)CC2)n1	>	100

====

# methodNotes: Plasma stability in human plasma
# Assay type: in vitro ADME
# experimentalSetup: read-out: plasma stability T1/2
measurementKind: half-life

moleculeSmiles	measurementKind	measuredValue
Cc1nc(Nc2ncc(C(=O)Nc3c(C)csc3Cl)s2)cc(N2CCN(CCO)CC2)n1	half-life	> 2.5 h

====

Collected Murine plasma protein binding, Percentage unbound (%) values appear next to each entry.
# methodNotes: Murine plasma protein binding
# experimentalSetup: Table 5A
measurementKind: Murine plasma protein binding, Percentage unbound (%)

moleculeSmiles	measuredValue
Cc1nc(Nc2ncc(C(=O)Nc3c(C)nn(C)c3C)s2)cc(N2CCN(CCO)CC2)n1	62
Cc1nc(Nc2ncc(C(=O)Nc3c(C)csc3Cl)s2)cc(N2CCN(CCO)CC2)n1	5
Cc1nc(Nc2ncc(C(=O)Nc3c(C)noc3C)s2)cc(N2CCN(CCO)CC2)n1	44
Cc1nc(Nc2ncc(C(=O)Nc3c(Cl)ccnc3C)s2)cc(N2CCN(CCO)CC2)n1	11
Cc1nc(Nc2ncc(C(=O)Nc3c(C)cncc3Cl)s2)cc(N2CCN(CCO)CC2)n1	14

====

# methodNotes: in vivo
# experimentalSetup: male, CD1, mouse, po, 30 mg/kg
measurementKind: MRT last (h)

compound	measuredValue
Cc1nc(Nc2ncc(C(=O)Nc3c(CF)csc3Cl)s2)cc(N2CCN(C)C(C)C2)n1 (racemic)	4.1
Cc1nc(Nc2ncc(C(=O)Nc3c(C)csc3Cl)s2)cc(N2CCN(CCO)CC2)n1	2.75
Cc1nc(Nc2ncc(C(=O)Nc3c(C(F)F)csc3Cl)s2)cc(N2CCN(CCO)CC2)n1	5.88
Cc1nc(Nc2ncc(C(=O)Nc3c(CF)csc3Cl)s2)cc(N2CCN(C)CC2)n1	3.38

====

# methodNotes: Murine plasma protein binding
# experimentalSetup: mouse

moleculeSmiles	valueUnit	recovery at 4 h
Cc1nc(Nc2ncc(C(=O)Nc3c(C)csc3Cl)s2)cc(N2CCN(CCO)CC2)n1	%	87
